Data credit: ChEMBL document CHEMBL1136654

Reported IC50 by item:
target: Cyclin-dependent kinase 2/cyclin E (Homo sapiens, UniProt P24941); experiment: In vitro inhibition of human CDK2/cyclin E.

Solved cases (3 shown):
| MOLECULE | TGT | IC50 |
| --- | --- | --- |
| C=C(c1ccccc1)c1c[nH]c2nncc-2c1OCCCC | Cyclin-dependent kinase 2/cyclin E (Homo sapiens, UniProt P24941) | > 25 µM |
| CCCCOc1c2cnnc-2[nH]cc1C(O)c1ccccc1 (stereo not given) | Cyclin-dependent kinase 2/cyclin E (Homo sapiens, UniProt P24941) | > 25 µM |
| CCCC(C)Oc1c(C(=O)c2ccccc2)cnc2[nH]ncc12 (stereo not given) | Cyclin-dependent kinase 2/cyclin E (Homo sapiens, UniProt P24941) | 0.52 µM |

Q. Provide only the value of recorded IC50 for O=C(c1ccccc1)c1cnc2[nH]ncc2c1Oc1ccccc1
A. 15 µM

Q. Provide only the value of recorded IC50 for CCCCCOc1c(C(=O)c2ccccc2)cnc2[nH]ncc12
A. 0.24 µM
